target: T1, Human EphA2 (human, UniProt P29317 24-976); test: IHC/IF on frozen human tumor tissue: ANC
T1 construct: Endogenous EphA2 in fresh frozen human tumor tissue sections, not a recombinant protein; also called ephrin receptor A2; hEphA2
MEASUREMENT_TYPE: IHC score
Could you respond with only the numeric value?

In one line, give reported IHC score of the entry AB-009813 (antibody, mouse IgG2a, V domains shown, Made on a mouse IgG2a framework) VH: QVQLQQWGAGLLKPSETLSLTCAVYGGSFSDYYWSWIRQPPGKGLEWIGEVNHAGSINYNNYNPSLKSRVTISVDPSKNQFSLKLTSVTAADTAVYYCAKPLRPHCTNGVCYSGDAFDIWGQGTMVTVAS VL: SYVLTQPPSVSVAPGQTARITCGGNNIGSKNVHWYQQKPGQAPVLVVYDDSDRPSGIPEQFSGSNSGNTATLTISRVEAGDEADYYCQVWDSSSDHLVFGGGTKLTVL .
2
